Molecular target: human recombinant histamine H1 receptor (Homo sapiens, UniProt P35367)
Construct: expressed in transfected cells; host or cells: CHO cells
Sequence (P35367 whole entry): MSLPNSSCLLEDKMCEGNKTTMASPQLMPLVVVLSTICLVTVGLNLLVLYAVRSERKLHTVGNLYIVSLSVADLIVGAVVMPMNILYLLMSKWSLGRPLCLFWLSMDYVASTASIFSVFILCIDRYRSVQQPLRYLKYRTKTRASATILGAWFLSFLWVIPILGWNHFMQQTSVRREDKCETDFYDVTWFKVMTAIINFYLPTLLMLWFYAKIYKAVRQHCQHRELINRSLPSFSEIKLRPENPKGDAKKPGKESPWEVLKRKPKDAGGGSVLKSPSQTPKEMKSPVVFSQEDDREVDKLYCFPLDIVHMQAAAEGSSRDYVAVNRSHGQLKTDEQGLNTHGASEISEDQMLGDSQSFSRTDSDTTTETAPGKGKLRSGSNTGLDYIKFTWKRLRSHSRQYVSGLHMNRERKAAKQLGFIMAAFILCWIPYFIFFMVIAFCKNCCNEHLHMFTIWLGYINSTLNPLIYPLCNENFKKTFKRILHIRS
Experiment: Histamine H1 radioligand binding ([3H]Pyrilamine)
Conditions: percent inhibition of specific binding; screened at 1 μM; read-out: Inhibition of ligand binding, Hist. H1
Kindly supply the reported inhibition at 1 µM values for the records listed here.

// lookup inhibition at 1 µM | system=human recombinant histamine H1 receptor (Homo sapiens, UniProt P35367) | key= CCN1CCc2c(c3ccccc3n2CCc2ccncc2)C1
82%

// lookup inhibition at 1 µM | system=human recombinant histamine H1 receptor (Homo sapiens, UniProt P35367) | key= Cc1ccc2c(c1)c1c(n2CCc2ccc(C(=O)O)nc2)CCNC1
81%

// lookup inhibition at 1 µM | system=human recombinant histamine H1 receptor (Homo sapiens, UniProt P35367) | key= CC(Cn1c2c(c3ccccc31)CN(C)CC2)c1ccc(F)cc1 (stereo not drawn)
80%

* * *

Kindly supply the reported inhibition at 1 µM values for the records listed here.
Molecular target: human recombinant histamine H2 receptor (Homo sapiens, UniProt P25021)
Construct: expressed in transfected cells; host or cells: CHO-K1 cells
Sequence (P25021 whole entry): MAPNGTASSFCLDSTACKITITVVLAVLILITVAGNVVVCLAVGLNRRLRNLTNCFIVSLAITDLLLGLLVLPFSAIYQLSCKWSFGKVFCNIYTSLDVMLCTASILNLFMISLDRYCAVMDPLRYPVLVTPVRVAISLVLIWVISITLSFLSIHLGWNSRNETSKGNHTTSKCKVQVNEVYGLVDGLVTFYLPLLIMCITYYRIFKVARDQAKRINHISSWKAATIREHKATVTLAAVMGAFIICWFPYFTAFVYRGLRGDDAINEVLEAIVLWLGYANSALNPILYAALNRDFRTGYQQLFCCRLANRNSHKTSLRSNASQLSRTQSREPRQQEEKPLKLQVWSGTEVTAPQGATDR
Assay: Histamine H2 radioligand binding ([125I]Aminopotentidine)
Settings: percent inhibition of specific binding; screened at 1 μM; read-out: Inhibition of ligand binding, Hist. H2
Supply the numeric figure in %, leaving out any unit text.

Endpoint output: inhibition at 1 µM of CCN1CCc2c(c3ccccc3n2CCc2ccc(C)cc2)C1 . Value?
51

Endpoint output: inhibition at 1 µM of CC(C)c1ccc(CCn2c3c(c4cc(Cl)ccc42)CN(C)CC3)cn1 . Value?
82

Endpoint output: inhibition at 1 µM of Cc1ccc2c(c1)c1c(n2Cc2ccc(C)nc2)CCN(C)C1 . Value?
7

Endpoint output: inhibition at 1 µM of Cc1ccc2c(c1)c1c(n2CCc2ccc(F)cc2)CCN(C)C1 . Value?
91

Endpoint output: inhibition at 1 µM of CCN1CCc2c(c3cc(C)ccc3n2CCc2ccc(C)nc2)C1 . Value?
34

Endpoint output: inhibition at 1 µM of Cc1ccc(C(O)Cn2c3c(c4ccccc42)CN(C)CC3)cc1 (centres unmarked) . Value?
58

Endpoint output: inhibition at 1 µM of CN1CCc2c(c3cc(Cl)ccc3n2CC(=O)N2CCSCC2)C1 . Value?
10

Endpoint output: inhibition at 1 µM of CN1CCc2c(c3cc(Cl)ccc3n2CCc2cncc(Cl)c2)C1 . Value?
80

* * *

Kindly supply the reported Inhibition of ligand binding, Ser. 5-HT2C values for the records listed here.
Target: human recombinant serotonin (5-Hydroxytryptamine) 5-HT2C receptor (Homo sapiens, UniProt P28335)
Construct: expressed in transfected cells; host or cells: CHO-K1 cells
Sequence (P28335 33-458): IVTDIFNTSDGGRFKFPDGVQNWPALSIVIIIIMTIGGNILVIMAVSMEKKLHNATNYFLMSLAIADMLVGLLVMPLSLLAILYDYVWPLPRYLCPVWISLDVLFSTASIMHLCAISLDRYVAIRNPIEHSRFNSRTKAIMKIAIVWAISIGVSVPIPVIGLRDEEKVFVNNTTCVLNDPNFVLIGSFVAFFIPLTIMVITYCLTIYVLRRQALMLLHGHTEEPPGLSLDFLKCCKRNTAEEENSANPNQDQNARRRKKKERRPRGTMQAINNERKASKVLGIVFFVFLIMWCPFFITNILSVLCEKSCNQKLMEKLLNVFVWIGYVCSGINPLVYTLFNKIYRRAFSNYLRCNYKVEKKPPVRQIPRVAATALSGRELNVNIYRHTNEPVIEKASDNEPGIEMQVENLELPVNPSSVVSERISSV
Assay: Serotonin 5-HT2C radioligand binding ([3H]Mesulergine)
Set-up: concentration or dose not given beside the values
Conditions: percent inhibition of specific binding
Supply the numeric figure in %, leaving out any unit text.

Endpoint output: Inhibition of ligand binding, Ser. 5-HT2C of CN1CCc2c(c3cc(Cl)ccc3n2CCc2cncnc2)C1 . Value?
76

Endpoint output: Inhibition of ligand binding, Ser. 5-HT2C of CN1CCc2c(c3cccc(Cl)c3n2CCc2ccccc2)C1 . Value?
99

Endpoint output: Inhibition of ligand binding, Ser. 5-HT2C of Cc1cnc(CCn2c3c(c4cc(Cl)ccc42)CN(C)CC3)cn1 . Value?
66

Endpoint output: Inhibition of ligand binding, Ser. 5-HT2C of CN1CCc2c(c3ccc(Cl)cc3n2CCc2ccccc2)C1 . Value?
95

Endpoint output: Inhibition of ligand binding, Ser. 5-HT2C of Cc1ccc2c(c1)c1c(n2CCc2ccc(C)nc2)CCN(C)C1 [Dimebon, dimebon, reference compound] . Value?
86

Endpoint output: Inhibition of ligand binding, Ser. 5-HT2C of CCOC(=O)N1CCc2c(c3cc(C)ccc3n2CCc2ccccc2)C1 . Value?
1

Endpoint output: Inhibition of ligand binding, Ser. 5-HT2C of CCN1CCc2c(c3cc(C)ccc3n2CCc2ccc(C)nc2)C1 . Value?
39

Endpoint output: Inhibition of ligand binding, Ser. 5-HT2C of CN1CCc2c(c3cc(Cl)ccc3n2CC(=O)N2CCSCC2)C1 . Value?
65

* * *

Target: human recombinant adrenergic α2A receptor (Homo sapiens, UniProt P08913)
Construct: expressed in transfected cells; host or cells: insect Sf9 cells
Sequence (P08913 whole entry): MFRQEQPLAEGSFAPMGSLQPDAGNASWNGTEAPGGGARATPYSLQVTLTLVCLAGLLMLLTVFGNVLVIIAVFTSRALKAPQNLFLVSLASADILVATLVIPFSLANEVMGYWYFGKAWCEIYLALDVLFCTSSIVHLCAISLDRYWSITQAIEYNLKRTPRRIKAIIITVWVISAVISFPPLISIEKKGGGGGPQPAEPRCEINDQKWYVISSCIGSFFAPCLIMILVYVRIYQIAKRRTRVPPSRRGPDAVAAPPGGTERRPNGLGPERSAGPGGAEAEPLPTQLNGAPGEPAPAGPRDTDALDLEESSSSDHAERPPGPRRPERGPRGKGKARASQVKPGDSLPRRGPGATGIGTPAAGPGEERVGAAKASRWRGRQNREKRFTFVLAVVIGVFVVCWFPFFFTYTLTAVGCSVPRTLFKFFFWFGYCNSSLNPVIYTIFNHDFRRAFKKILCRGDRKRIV
Assay: Adrenergic α2A radioligand binding ([3H]MK-912)
Parameters: concentration or dose not given beside the values
Details: percent inhibition of specific binding
Kindly supply the reported Inhibition of ligand binding, Adren. alpha2A values for the records listed here.
Supply the numeric figure in %, leaving out any unit text.

Endpoint output: Inhibition of ligand binding, Adren. alpha2A of Cc1ccc(CCn2c3c(c4cc(C(C)C)ccc42)CN(C)CC3)cn1 . Value?
89

Endpoint output: Inhibition of ligand binding, Adren. alpha2A of CN1CCc2c(c3ccc(Cl)cc3n2CCc2ccccc2)C1 . Value?
99

Endpoint output: Inhibition of ligand binding, Adren. alpha2A of Cc1ccc2c(c1)c1c(n2CCc2ccncc2)CCN(C)C1 . Value?
72

Endpoint output: Inhibition of ligand binding, Adren. alpha2A of CC1CCN(C(=O)CCn2c3c(c4cc(Cl)ccc42)CN(C)CC3)CC1 . Value?
58

Endpoint output: Inhibition of ligand binding, Adren. alpha2A of CCN1CCc2c(c3cc(C)ccc3n2CCc2ccccn2)C1 . Value?
57

Endpoint output: Inhibition of ligand binding, Adren. alpha2A of CN1CCc2c(c3cc(Cl)ccc3n2CC(=O)N2CCNCC2)C1 . Value?
22

Endpoint output: Inhibition of ligand binding, Adren. alpha2A of CN1CCc2c(c3ccc(Cl)cc3n2CCC2CCCCC2)C1 . Value?
80

Endpoint output: Inhibition of ligand binding, Adren. alpha2A of CN1CCc2c(c3cc(Cl)ccc3n2CCN2CCCCC2)C1 . Value?
76

Endpoint output: Inhibition of ligand binding, Adren. alpha2A of CN1CCc2c(c3cc(F)ccc3n2CCc2ccc(F)cc2)C1 . Value?
93

* * *

Target: human recombinant histamine H1 receptor (Homo sapiens, UniProt P35367)
Construct: expressed in transfected cells; host or cells: CHO cells
Assay: Histamine H1 radioligand binding ([3H]Pyrilamine)
Details: 1 μM compound; […] [3H]Pyrilamine; read-out: Histamine Binding H1, percent inhibition of specific binding
Kindly supply the reported inhibition at 1 µM values for the records listed here.
Supply the numeric figure in %, leaving out any unit text.

Endpoint output: inhibition at 1 µM of Cc1ccc2c(c1)c1c(n2Cc2ccc(C)nc2)CCN(C)C1 . Value?
81

Endpoint output: inhibition at 1 µM of CN1CCc2c(c3cc(Cl)ccc3n2CCc2ccccn2)C1 . Value?
80

Endpoint output: inhibition at 1 µM of Cc1ccc2c(c1)c1c(n2CCc2ccccn2)CCN(C)C1 . Value?
79

* * *

Target: human recombinant histamine H2 receptor (Homo sapiens, UniProt P25021)
Construct: expressed in transfected cells; host or cells: CHO-K1 cells
Experiment: Histamine H2 radioligand binding ([125I]Aminopotentidine)
Conditions: 1 μM compound; 0.1 nM [125I]Aminopotentidine; read-out: Histamine Binding H2, percent inhibition of specific binding
Procedure: Non-specific binding was estimated in the presence of 3 μM Tiotidine. […] Biochemical assay results are presented as the percent inhibition of specific binding in Table 5. Non-specific binding was estimated in the presence of 3 μM Tiotidine. […] Compounds were screened at 1 μM, using 1% DMSO as vehicle. Biochemical assay results are presented as the percent inhibition of specific binding in Table 6.
Kindly supply the reported inhibition at 1 µM values for the records listed here.
Dear colleague, please send the value followed by its unit.

// lookup inhibition at 1 µM | system=human recombinant histamine H2 receptor (Homo sapiens, UniProt P25021) | key= CN1CCc2c(c3cc(Cl)ccc3n2CC(=O)N2CCSCC2)C1 [Compound 239]
10%

// lookup inhibition at 1 µM | system=human recombinant histamine H2 receptor (Homo sapiens, UniProt P25021) | key= CCOC(=O)N1CCc2c(c3cc(-c4cccnc4)ccc3n2CCc2ccc(C)nc2)C1 [Compound 19]
10%

// lookup inhibition at 1 µM | system=human recombinant histamine H2 receptor (Homo sapiens, UniProt P25021) | key= CN1CCc2c(c3cc(Cl)ccc3n2CC(=O)N2CCNCC2)C1 [Compound 244]
10%

// lookup inhibition at 1 µM | system=human recombinant histamine H2 receptor (Homo sapiens, UniProt P25021) | key= CCN1CCc2c(c3cc(C)ccc3n2CCc2ccncc2)C1 [Compound 27]
32%

// lookup inhibition at 1 µM | system=human recombinant histamine H2 receptor (Homo sapiens, UniProt P25021) | key= CN1CCc2c(c3cc(Cl)ccc3n2CC(=O)N2CCNC(=O)C2)C1 [Compound 246]
16%

// lookup inhibition at 1 µM | system=human recombinant histamine H2 receptor (Homo sapiens, UniProt P25021) | key= Cc1ccc2c(c1)c1c(n2CCc2ccccc2)CCN(C)C1 [Compound 20]
72%

// lookup inhibition at 1 µM | system=human recombinant histamine H2 receptor (Homo sapiens, UniProt P25021) | key= CC1CN(C(=O)Cn2c3c(c4cc(Cl)ccc42)CN(C)CC3)CC(C)N1 (centres unmarked) [Compound 245]
8%

// lookup inhibition at 1 µM | system=human recombinant histamine H2 receptor (Homo sapiens, UniProt P25021) | key= Cc1ccc2c(c1)c1c(n2CCC(=O)N2CCC(N)CC2)CCN(C)C1 [Compound 231]
4%

// lookup inhibition at 1 µM | system=human recombinant histamine H2 receptor (Homo sapiens, UniProt P25021) | key= Cc1ccc(C(O)Cn2c3c(c4cc(C)ccc42)CN(C)CC3)cc1 (racemic) [Compound 28]
58%

// lookup inhibition at 1 µM | system=human recombinant histamine H2 receptor (Homo sapiens, UniProt P25021) | key= CCN1CCc2c(c3ccccc3n2CCc2ccccc2)C1 [Compound 4]
51%

// lookup inhibition at 1 µM | system=human recombinant histamine H2 receptor (Homo sapiens, UniProt P25021) | key= CCOC(=O)N1CCc2c(c3cc(Br)ccc3n2CCc2ccc(C)nc2)C1 [Compound 18]
1%

// lookup inhibition at 1 µM | system=human recombinant histamine H2 receptor (Homo sapiens, UniProt P25021) | key= CCN1CCc2c(c3ccccc3n2CCc2ccncc2)C1 [Compound 5]
2%

// lookup inhibition at 1 µM | system=human recombinant histamine H2 receptor (Homo sapiens, UniProt P25021) | key= Cc1ccc2c(c1)c1c(n2CCc2ccc(F)cc2)CCN(C)C1 [Compound 33]
91%

// lookup inhibition at 1 µM | system=human recombinant histamine H2 receptor (Homo sapiens, UniProt P25021) | key= Cc1ccc(CCn2c3c(c4cc(C)ccc42)CN(C)CC3)cc1 [Compound 25]
96%

// lookup inhibition at 1 µM | system=human recombinant histamine H2 receptor (Homo sapiens, UniProt P25021) | key= Cc1ccc(Cn2c3c(c4ccccc42)CN(C)CC3)cn1 [Compound 17]
-2%

// lookup inhibition at 1 µM | system=human recombinant histamine H2 receptor (Homo sapiens, UniProt P25021) | key= Cc1ccc2c(c1)c1c(n2CCc2ccccn2)CCN(C)C1 [Compound 21]
45%

// lookup inhibition at 1 µM | system=human recombinant histamine H2 receptor (Homo sapiens, UniProt P25021) | key= CN1CCc2c(c3cc(Cl)ccc3n2CC(=O)N2CCCCC2)C1 [Compound 236]
17%

// lookup inhibition at 1 µM | system=human recombinant histamine H2 receptor (Homo sapiens, UniProt P25021) | key= Cc1ccc(CCn2c3c(c4ccccc42)CN(C)CC3)cc1 [Compound 1]
82%

// lookup inhibition at 1 µM | system=human recombinant histamine H2 receptor (Homo sapiens, UniProt P25021) | key= CCN1CCc2c(c3cc(C)ccc3n2Cc2ccccc2)C1 [Compound 140]
45%

// lookup inhibition at 1 µM | system=human recombinant histamine H2 receptor (Homo sapiens, UniProt P25021) | key= Cc1ccc2c(c1)c1c(n2CCN2CCCC2)CCN(C)C1 [Compound 221]
52%

// lookup inhibition at 1 µM | system=human recombinant histamine H2 receptor (Homo sapiens, UniProt P25021) | key= CCN1CCc2c(c3ccccc3n2CCc2ccccn2)C1 [Compound 6]
-3%

// lookup inhibition at 1 µM | system=human recombinant histamine H2 receptor (Homo sapiens, UniProt P25021) | key= CCOC(=O)N1CCc2c(c3cc(C)ccc3n2CCc2ccccc2)C1 [Compound 24]
13%

// lookup inhibition at 1 µM | system=human recombinant histamine H2 receptor (Homo sapiens, UniProt P25021) | key= CN1CCc2c(c3cc(Cl)ccc3n2CCC(=O)N2CCCC2)C1 [Compound 240]
23%

// lookup inhibition at 1 µM | system=human recombinant histamine H2 receptor (Homo sapiens, UniProt P25021) | key= CN1CCc2c(c3ccccc3n2CCc2ccncc2)C1 [Compound 10]
12%

// lookup inhibition at 1 µM | system=human recombinant histamine H2 receptor (Homo sapiens, UniProt P25021) | key= CCOC(=O)N1CCc2c(c3cc(C)ccc3n2CCc2cccnc2)C1 [Compound 217]
13%

// lookup inhibition at 1 µM | system=human recombinant histamine H2 receptor (Homo sapiens, UniProt P25021) | key= CCN1CCc2c(c3cc(C)ccc3n2CCc2ccccc2)C1 [Compound 37]
53%

// lookup inhibition at 1 µM | system=human recombinant histamine H2 receptor (Homo sapiens, UniProt P25021) | key= Cc1ccc2c(c1)c1c(n2CCC(=O)N2CCC(NC(=O)OC(C)(C)C)CC2)CCN(C)C1 [Compound 226]
96%

// lookup inhibition at 1 µM | system=human recombinant histamine H2 receptor (Homo sapiens, UniProt P25021) | key= Cc1ccc2c(c1)c1c(n2CCCc2ccccn2)CCN(C)C1 [Compound 233]
45%

// lookup inhibition at 1 µM | system=human recombinant histamine H2 receptor (Homo sapiens, UniProt P25021) | key= Cc1ccc2c(c1)c1c(n2CCc2ccc(C)nc2)CCNC1 [Compound 230]
6%
